Where do these numbers come from? They come from paper PMC9114433.

# TARGET UNDER TEST: hHAO1 (Homo sapiens, UniProt Q9UJM8)
# Sequence (Q9UJM8 1-368): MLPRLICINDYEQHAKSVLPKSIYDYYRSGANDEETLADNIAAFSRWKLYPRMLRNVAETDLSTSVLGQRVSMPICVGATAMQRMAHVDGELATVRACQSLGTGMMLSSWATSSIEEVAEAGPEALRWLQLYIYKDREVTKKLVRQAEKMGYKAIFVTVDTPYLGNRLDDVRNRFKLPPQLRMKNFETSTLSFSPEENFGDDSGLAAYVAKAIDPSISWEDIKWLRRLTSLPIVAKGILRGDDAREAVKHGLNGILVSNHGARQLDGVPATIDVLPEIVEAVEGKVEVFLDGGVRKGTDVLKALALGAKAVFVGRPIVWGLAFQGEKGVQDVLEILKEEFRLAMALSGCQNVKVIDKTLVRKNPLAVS
# ASSAY EXPLANATION: Amplex Red fluorescence hydrogen peroxide activity assay
# Type: biochemical
# Parameters: A hHAO1 construct, encoding residues Met1-Ser368, with an engineered N-terminal His6-tag; His6 (N); made in house; host or cells: E. coli BL21 (DE3)
# EXPERIMENTAL CONTEXT: 95% confidence interval of fit; read-out: 95% CI Ki
pKi: −log10 of the molar value.
The following compounds are shown together with reported pKi values.

>>> test_value("Nc1c(C(=O)O)[nH]c(=O)[nH]c1=O [Compound 9]")
"3.90 to 3.95"
>>> test_value("Cc1cc(NC(=O)N2CCN(c3cccc(O)c3)CC2)no1 [Compound 14]")
"3.93 to 4.08"
>>> test_value("Cn1cc(N)c(=O)n(C)c1=O [Compound 10]")
"3.75 to 3.80"
>>> test_value("O=C(NO)c1n[nH]c2ccccc12 [Compound 7]")
"4.19 to 4.25"
>>> test_value("Cn1cc(N)c(=O)[nH]c1=O [Compound 11]")
"3.61 to 3.66"

Qu. May I ask what pKi has been recorded for O=C(Nc1cccnc1)N1CCN(c2ccccc2O)CC1 [Compound 13] ?
Ans. 4.08 to 4.23

Qu. May I ask what pKi has been recorded for CC1=NC(=O)NC(=O)C1N (centres unmarked) [Compound 12] ?
Ans. 3.81 to 3.85

Qu. May I ask what pKi has been recorded for NCCNC(=O)c1n[nH]c2ccccc12 [Compound 8] ?
Ans. 4.35 to 4.42
